Experiment: Pharmacokinetics after intra-duodenal injection (ID) in anesthetized rats, model mimicking enteric-coated oral dosage form, plasma LC-MS
Assay type: in vivo, rat
Details: rat, plasma, other: intra-duodenal injection (ID), 3 mg, ID 0.3 ml A [10 mg/ml in PBS]; Mean PK Values (average of individual PK parameters); read-out: Cmax
Method: This model mimics the release and absorption expected from an orally delivered enteric coated solid dosage form such as capsule or tablet. After extraction, the samples were then transferred to ice-cold tubes containing a protease inhibitor cocktail. […] The oral delivery of an angiotensin (1-7) peptide (e.g., TXA127) was then evaluated in a rat model that mimics the release of the peptide into the intestine by enteric-coated capsule. […]
Measured attribute: Cmax
Number first, unit second.

The reported value for CC[C@H](C)[C@H](NC(=O)[C@H](Cc1ccc(O)cc1)NC(=O)[C@@H](NC(=O)[C@H](CCCNC(=N)N)NC(=O)[C@@H](N)CC(=O)O)C(C)C)C(=O)N[C@@H](Cc1c[nH]cn1)C(=O)N1CCC[C@H]1C(=O)O in terms of Cmax is 7.5 ng/mL

###

Assay: Pharmacokinetics after subcutaneous (SC) administration of angiotensin (1-7) in PBS, plasma LC-MS
Type: in vivo, female Sprague-Dawley rats
Details: female, Sprague-Dawley, rat, plasma, sc, 3 mg, 0.3 mL of 10 mg/mL A(1-7) subcutaneous injection; three rats; read-out: Half-lives
Measured attribute: Half-Life

Query CC[C@H](C)[C@H](NC(=O)[C@H](Cc1ccc(O)cc1)NC(=O)[C@@H](NC(=O)[C@H](CCCNC(=N)N)NC(=O)[C@@H](N)CC(=O)O)C(C)C)C(=O)N[C@@H](Cc1c[nH]cn1)C(=O)N1CCC[C@H]1C(=O)O [Angiotensin (1-7)] yields Half-Life of ~15 min

###

Assay: Pharmacokinetics after intra-duodenal injection (ID) in anesthetized rats, model mimicking enteric-coated oral dosage form, plasma LC-MS
Assay type: in vivo, rat
Conditions: rat, plasma, other: intra-duodenal injection (ID), 3 mg, pH 3.5, ID 0.3 ml C [10 mg/ml, Captopril 0.5 mg/ml, 10 mg/ml LLC, 400 mM Citrate pH 3.5, 150 mM NaCl]; Mean PK Values (average of individual PK parameters); read-out: Half-Life
Measured attribute: Half-Life (min)
Write it as a number; the unit min goes unstated.

Note to self: Half-Life recorded for CC[C@H](C)[C@H](NC(=O)[C@H](Cc1ccc(O)cc1)NC(=O)[C@@H](NC(=O)[C@H](CCCNC(=N)N)NC(=O)[C@@H](N)CC(=O)O)C(C)C)C(=O)N[C@@H](Cc1c[nH]cn1)C(=O)N1CCC[C@H]1C(=O)O [Angiotensin (1-7)] was 19.4

###

Test: Pharmacokinetics after subcutaneous (SC) administration of angiotensin (1-7) in PBS, plasma LC-MS
Format: in vivo, female Sprague-Dawley rats
Settings: female, Sprague-Dawley, rat, plasma, sc, 3 mg, SC 0.3 mL of 10 mg/mL A(1-7) in PBS; Average (PK value of the mean concentrations); read-out: Tmax (converted)
Measured attribute: Tmax (min)
All answers are understood in min, so give the number only.

For CC[C@H](C)[C@H](NC(=O)[C@H](Cc1ccc(O)cc1)NC(=O)[C@@H](NC(=O)[C@H](CCCNC(=N)N)NC(=O)[C@@H](N)CC(=O)O)C(C)C)C(=O)N[C@@H](Cc1c[nH]cn1)C(=O)N1CCC[C@H]1C(=O)O the molecule record lists Tmax as 20

###

Test: Pharmacokinetics after intra-duodenal injection (ID) in anesthetized rats, model mimicking enteric-coated oral dosage form, plasma LC-MS
Type: in vivo, rat
Conditions: rat, plasma, 3 mg, ID 0.3 ml A [10 mg/ml in PBS]; time point 5 min; Average; read-out: Angiotensin (1-7) concentration
Measured attribute: level at 5 min
Please format your answer as a value with the unit trailing.

Field level at 5 min (entry CC[C@H](C)[C@H](NC(=O)[C@H](Cc1ccc(O)cc1)NC(=O)[C@@H](NC(=O)[C@H](CCCNC(=N)N)NC(=O)[C@@H](N)CC(=O)O)C(C)C)C(=O)N[C@@H](Cc1c[nH]cn1)C(=O)N1CCC[C@H]1C(=O)O ) reads 4.18 ng/mL

###

Experiment: Pharmacokinetics after intra-duodenal injection (ID) in anesthetized rats, model mimicking enteric-coated oral dosage form, plasma LC-MS
Assay type: in vivo, rat
Conditions: rat, plasma, 3 mg, pH 3.5, ID 0.3 ml B [10 mg/ml, 10 mg/ml LLC, 400 mM Citrate pH 3.5, 150 mM NaCl]; time point 5 min; Average; read-out: Angiotensin (1-7) concentration
Measured attribute: level at 5 min

Reported level at 5 min for CC[C@H](C)[C@H](NC(=O)[C@H](Cc1ccc(O)cc1)NC(=O)[C@@H](NC(=O)[C@H](CCCNC(=N)N)NC(=O)[C@@H](N)CC(=O)O)C(C)C)C(=O)N[C@@H](Cc1c[nH]cn1)C(=O)N1CCC[C@H]1C(=O)O [Angiotensin (1-7)] was 417 ng/mL

###

Experiment: Pharmacokinetics after subcutaneous (SC) administration of angiotensin (1-7) in PBS, plasma LC-MS
Assay type: in vivo, female Sprague-Dawley rats
Settings: female, Sprague-Dawley, rat, plasma, 3 mg; SC 0.3 mL of 10 mg/mL A(1-7) in PBS; time point 10 min; Average; read-out: Angiotensin (1-7) concentration
Measured attribute: level at 10 min (ng/mL)
Numbers only; they are read as ng/mL.

// recorded level at 10 min for CC[C@H](C)[C@H](NC(=O)[C@H](Cc1ccc(O)cc1)NC(=O)[C@@H](NC(=O)[C@H](CCCNC(=N)N)NC(=O)[C@@H](N)CC(=O)O)C(C)C)C(=O)N[C@@H](Cc1c[nH]cn1)C(=O)N1CCC[C@H]1C(=O)O : 6.88

###

Test: Pharmacokinetics after subcutaneous (SC) administration of angiotensin (1-7) in PBS, plasma LC-MS
Format: in vivo, female Sprague-Dawley rats
Settings: female, Sprague-Dawley, rat, plasma, 3 mg; SC 0.3 mL of 10 mg/mL A(1-7) in PBS; time point 60 min; Average; read-out: Angiotensin (1-7) concentration
Measured attribute: level at 1 h (ng/mL)
Entry rule: numbers only, all in ng/mL.

Entry CC[C@H](C)[C@H](NC(=O)[C@H](Cc1ccc(O)cc1)NC(=O)[C@@H](NC(=O)[C@H](CCCNC(=N)N)NC(=O)[C@@H](N)CC(=O)O)C(C)C)C(=O)N[C@@H](Cc1c[nH]cn1)C(=O)N1CCC[C@H]1C(=O)O ; level at 1 h = 3.71

###

Test: Pharmacokinetics after intra-duodenal injection (ID) in anesthetized rats, model mimicking enteric-coated oral dosage form, plasma LC-MS
Format: in vivo, rat
Conditions: rat, plasma, other: intra-duodenal injection (ID), 3 mg, ID; 0.3 mL of 10 mg/mL A(1-7) formulated in PBS; 6 rats; range over the group; read-out: Half-lives
Measured attribute: Half-Life

Summary for this compound, CC[C@H](C)[C@H](NC(=O)[C@H](Cc1ccc(O)cc1)NC(=O)[C@@H](NC(=O)[C@H](CCCNC(=N)N)NC(=O)[C@@H](N)CC(=O)O)C(C)C)C(=O)N[C@@H](Cc1c[nH]cn1)C(=O)N1CCC[C@H]1C(=O)O : Half-Life is 0.117 to 2.33 h

###

Experiment: Pharmacokinetics after intra-duodenal injection (ID) in anesthetized rats, model mimicking enteric-coated oral dosage form, plasma LC-MS
Assay type: in vivo, rat
Details: rat, plasma, pH 3.5, ID 0.3 ml C [10 mg/ml, Captopril 0.5 mg/ml, 10 mg/ml LLC, 400 mM Citrate pH 3.5, 150 mM NaCl]; time point 10 min; Average; read-out: Angiotensin (1-7) concentration
Measured attribute: level at 10 min

Looking up CC[C@H](C)[C@H](NC(=O)[C@H](Cc1ccc(O)cc1)NC(=O)[C@@H](NC(=O)[C@H](CCCNC(=N)N)NC(=O)[C@@H](N)CC(=O)O)C(C)C)C(=O)N[C@@H](Cc1c[nH]cn1)C(=O)N1CCC[C@H]1C(=O)O , I see its level at 10 min listed as 233 ng/mL

###

Assay: Pharmacokinetics after intra-duodenal injection (ID) in anesthetized rats, model mimicking enteric-coated oral dosage form, plasma LC-MS
Type: in vivo, rat
Settings: rat, plasma, 3 mg, ID 0.3 ml A [10 mg/ml in PBS]; time point 20 min; Average; read-out: Angiotensin (1-7) concentration
Measured attribute: level at 20 min (ng/mL)
Field: numeric (ng/mL). Do not append units.

The measured level at 20 min associated with CC[C@H](C)[C@H](NC(=O)[C@H](Cc1ccc(O)cc1)NC(=O)[C@@H](NC(=O)[C@H](CCCNC(=N)N)NC(=O)[C@@H](N)CC(=O)O)C(C)C)C(=O)N[C@@H](Cc1c[nH]cn1)C(=O)N1CCC[C@H]1C(=O)O reads 3.58

###

Test: Pharmacokinetics after intra-duodenal injection (ID) in anesthetized rats, model mimicking enteric-coated oral dosage form, plasma LC-MS
Format: in vivo, rat
Conditions: rat, plasma, other: intra-duodenal injection (ID), 3 mg, pH 3.5, ID 0.3 ml C [10 mg/ml, Captopril 0.5 mg/ml, 10 mg/ml LLC, 400 mM Citrate pH 3.5, 150 mM NaCl]; Average (PK value of the mean concentrations); read-out: Cmax
Measured attribute: Cmax (ng/mL)
Number only, in ng/mL; omit the unit.

// Cmax lookup, molecule = CC[C@H](C)[C@H](NC(=O)[C@H](Cc1ccc(O)cc1)NC(=O)[C@@H](NC(=O)[C@H](CCCNC(=N)N)NC(=O)[C@@H](N)CC(=O)O)C(C)C)C(=O)N[C@@H](Cc1c[nH]cn1)C(=O)N1CCC[C@H]1C(=O)O , result: 628
